The reader will find reported koff values listed item by item below.
assayTarget: T1, human CD38 protein immobilised on AR2G biosensor (human, UniProt P28907 43-300, limits assumed)
T1 construct: Construct used on the Octet is not described; also called immobilised human CD38
protocol: Octet BLI, immobilised CD38
reportedEndpoint: koff

{"binder": "WF114 (VHH, His6-Myc-tagged monovalent VHH; also called s+/-24b; s-24.1b) VHH: VQLQESGGGLVQAGGSLRLSCAASGFTFDDYVIGWFRQAPGKECEGVSSISNNNSTYYADSVKGRFTIASDNAKNTVYLQMNSLKPEDTAVYYCAADVTLNPFTGWNTRSGPMYRYEYDYWGQGTQVTVSS", "reportedEndpoint": "koff", "result": "< 0.00014 s⁻¹"}
{"binder": "MU1105 (VHH, His6-Myc-tagged monovalent VHH; also called I-24a; I-24.1a) VHH: DVQLQASGGGLVQAGGSLRLSCAASGFTFDDYVIGWFRQAPGKEREGVSSISSSGSIYYADSVKGRFTISSDNAKNTVYLQMNSLKPEDTAVYFCAADVTLNPFTGWDTRSGPMYRYEYDYWGQGTQVTVSS", "reportedEndpoint": "koff", "result": "< 0.0003 s⁻¹"}
{"binder": "WF139 (VHH, His6-Myc-tagged monovalent VHH; also called s-19b; s-19.1b) VHH: SGGGLVQAGGSQRLSCAASGHTFSSYSMAWFRQAPGKEREFVAANIMSGTNTYYADSVRGRFTMSRDIAKNTVYLQMNSLKEEDTALYYCAAADRFRGWATWRDDPDQYDYWDQGTQVTVSS", "reportedEndpoint": "koff", "result": "< 0.00022 s⁻¹"}

Data credit: patent US20190276551A1
